The values you see were collected from PubChem BioAssay.

Listing: viability of selected molecules
# experimental-details: reversal of MRP1-mediated doxorubicin resistance, pilot screen, H69AR cells, doxorubicin co-treatment (AID 601)
# setup-conditions: H69AR cells, CellTiter-Glo, 72 h; compound alone cytotoxicity; at 10 µM
Quick note: give the figure in %, leave out the unit.

// known answers, use as guide
CCc1ccccc1NC(=O)CN(c1cccc(OC)c1)S(C)(=O)=O; 100
C=CCOC(=O)C(C#N)c1nc2ccccc2nc1N1CCN(Cc2ccccc2)CC1 (stereo unspecified); 84.1

Asked: // returns reported viability for input CCOc1cc(C(=O)N(C)c2ccccc2)cc(OCC)c1OCC
Given back: 89.2

Asked: // returns reported viability for input COCCN(CCOC)S(=O)(=O)c1ccc(C(=O)Nc2nnc(C3CC3)o2)cc1
Given back: 82.7

Asked: // returns reported viability for input Cc1cc(SCC(N)=O)nc(SCC(=O)c2ccccc2)n1
Given back: 99.8

Asked: // returns reported viability for input Cn1cc(CC(=O)Nc2cccc(C#N)c2)c2ccccc21
Given back: 104

---

# experimental-details: growth suppression of yeast trafficking mutant, preliminary HTS, modulators of trafficking downstream of Golgi apparatus project, 1536-format plate, OD 615 nm (AID 637)
# setup-conditions: yeast transport mutant growth, absorbance 615 nm, 18 h; stronger effect = higher value
Listing: inhibition of selected compounds
Quick note: give the figure in %, leave out the unit.

// known answers, use as guide
CCOC(=O)c1sc(N)c(C(=O)OCC)c1COC(=O)C1CC(=O)N(Cc2ccco2)C1 (stereo not given); -8.71
CCCN(Cc1cc2ccc(C)cc2[nH]c1=O)C(=O)c1cccnc1; -3.28
Cc1cc(N2CCC3(CC2)OCCO3)n2nc(C)c(-c3ccc(Cl)cc3)c2n1; 2.38
CN(C1CCCCC1)S(=O)(=O)c1ccc(NC(=O)c2ccco2)cc1; -0.67
COc1ccc(Cl)cc1C(=O)n1nc(C)cc1C; 9.17

Asked: // returns reported inhibition for input CCOC(=O)C(NC(=O)C1CCCN1C(=O)OCc1ccccc1)C(=O)OCC (stereo not given)
Given back: -1.77

Asked: // returns reported inhibition for input O=C(Cn1ccc2ccccc2c1=O)Nc1ccc2c(c1)OCO2
Given back: -3.17

Asked: // returns reported inhibition for input COc1ccc(OC)c(C2=NOC(C(=O)NCCN3CCOCC3)C2)c1 (stereo not given)
Given back: -3.27

Asked: // returns reported inhibition for input Cc1nc2ccccn2c1C(=O)NCCCN1CCOCC1
Given back: 4.59

Asked: // returns reported inhibition for input Cc1nc2ccc(S(=O)(=O)NCC(=O)O)cc2s1
Given back: -6.19

Asked: // returns reported inhibition for input CC1(C)Cc2noc(N)c2C(C)(C)N1OC(=O)c1ccco1
Given back: 3.81

Asked: // returns reported inhibition for input O=C(CSc1ncnc2c1oc1ccccc12)Nc1ccccc1F
Given back: -1.33

Asked: // returns reported inhibition for input COc1ccccc1OCCSc1nc2ccccc2c(=O)[nH]1
Given back: -4

Asked: // returns reported inhibition for input O=C(CSc1nnc(Cc2cccs2)n1Cc1ccco1)Nc1cccc(Cl)c1
Given back: -7.5

Asked: // returns reported inhibition for input CC(=Nc1ccc(C)c(C)c1)C1=C(O)CCC1=O
Given back: -2.46

Asked: // returns reported inhibition for input CCOC(=O)CSC1=C(C#N)C(=O)NC(c2ccc(OC)c(OC)c2)S1 (stereo not given)
Given back: 0.16

Asked: // returns reported inhibition for input O=C(c1ccc(Cl)cc1)N1CCCCC(Sc2nnc(-c3ccc4c(c3)OCO4)o2)C1=O (stereo not given)
Given back: 5.56

Asked: // returns reported inhibition for input Cc1occc1-c1nnc(SCC(=O)c2ccc(F)cc2)n1Cc1ccco1
Given back: -0.16

Asked: // returns reported inhibition for input COC(=O)C(NC(C)=O)(Nc1ccccn1)C(F)(F)F (stereo not given)
Given back: -7.64

Asked: // returns reported inhibition for input Cn1c(=O)c2c3c(sc2n2c(SCc4ccccc4)nnc12)CCCC3
Given back: -1.75

Asked: // returns reported inhibition for input COc1ccc(NC(=O)Nc2ccc(C)cc2OC(F)F)cc1OC
Given back: -6.67

Asked: // returns reported inhibition for input CN(C)C(=O)Cn1c(SCC(=O)NC2CCCCC2)nc2ccccc21
Given back: 0.16

Asked: // returns reported inhibition for input COc1ccc(CCn2c(=N)c(C#N)cc3c(=O)n4ccccc4nc32)cc1
Given back: 5.17

Asked: // returns reported inhibition for input COc1ccc(CN(Cc2nc3ccccc3c(=O)[nH]2)C(=O)NC2CCCCC2)cc1
Given back: -0.5

Asked: // returns reported inhibition for input CCN(CC)CCCn1c(=S)[nH]c2cc(Cl)ccc2c1=O
Given back: 1.8

Asked: // returns reported inhibition for input CCCC(C(=O)NCc1ccco1)N(C(=O)CNS(=O)(=O)c1ccc(Cl)cc1)C1CCCC1 (stereo not given)
Given back: 3.55

Asked: // returns reported inhibition for input CCn1c(SCC(=O)N2CCCc3ccccc32)nnc1-c1cccs1
Given back: 0.16

Asked: // returns reported inhibition for input CCCCc1cc(=O)oc2cc(C)cc(OC(C)C(=O)O)c12 (stereo not given)
Given back: -7.17

Asked: // returns reported inhibition for input COc1cccc(C(=O)OCn2nnc3ccccc3c2=O)c1
Given back: 16.5
